The measured values listed here are drawn from PubChem BioAssay.

assayInfo: E. coli DRC41 culture turbidity changes, primary screen, E. coli filamentation inducer project, strain DRC41, OD650, 48 h (AID 1152);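 further: E. coli MC1000 strain DRC41 lacking acrAB efflux pump and sulA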
reportedConditions: E. coli DRC41 (acrAB sulA), higher = more signal, called active from +8 up or from −8 down
# maps each entry to its z-score
Form field (numeric): enter value without unit.

The following compounds have reported results that may help.
CCOC(=O)C1=C[C@@H](C(C)(C)C)N(S(=O)(=O)c2ccc(C)cc2)[C@H]1c1cccc(Cl)c1; -1.11
C=CCNC(=O)[C@@H]1[C@H]2C(=O)O[C@H](c3ccccc3)[C@H](c3ccccc3)N2[C@H](c2ccc(O)cc2)[C@@]12C(=O)N(C(=O)OCCOC)c1ccc(C#CCCO)cc12; -0.181

QUERY: Quick one: z-score for CC=CC(O)C1C=CC2C(=O)NC(=O)C2N1Nc1ccccn1 (centres undefined) ?
RESULT: -0.576

QUERY: What do you get for COCC1C2CC[C@H]3C(OCc4ccc(OC)cc4)OC[C@]4(C)[C@H]3C2=C(CN4C(=O)OC(C)(C)C)[C@H](C)C1COC (some centres undefined) ?
RESULT: -1.23

QUERY: Again, but for "C=C(/C(=C/C[C@H](OC(=O)c1ccncc1)c1ccccc1OCCO)c1cnc2ccccc2c1)C(C)C"
RESULT: -0.227

QUERY: Another compound: "CCCNC(=O)[C@@]1(C)c2ccccc2C(=O)N(Cc2ccccc2)[C@H]1c1ccc(CO)cc1"
RESULT: 1.3

QUERY: What would you report for "COCCOC(=O)N1C(=O)[C@@]2(c3cc(C#CCC(C(=O)OC)C(=O)OC)ccc31)[C@H](c1ccc(O)cc1)N1[C@H](c3ccccc3)[C@H](c3ccccc3)OC(=O)[C@H]1[C@@H]2C(=O)NC[C@H](O)c1ccccc1" ?
RESULT: 1.47

QUERY: Same lookup for "[N-]=[N+]=Nc1ccccc1C[C@]1(C(=O)O)N=C(c2ccc(OCCCO)cc2)O[C@H]1c1ccccc1" , please.
RESULT: 0.174

QUERY: Continue with "COCCOC(=O)N1C(=O)[C@@]2(c3cc(C#CC4=CCCCC4)ccc31)[C@H](C(=O)N1CCCCCCC1)[C@H]1C(=O)O[C@H](c3ccccc3)[C@H](c3ccccc3)N1[C@@H]2c1ccc(OCCO)cc1"
RESULT: -1.1

QUERY: And Cc1ccccc1C(O)C1C=CC2C(=O)N(c3ccccc3)C(=O)C2N1Nc1ccc([N+](=O)[O-])cc1 (centres undefined) ?
RESULT: -0.467

QUERY: Note, next up: "COC(=O)C(CC#Cc1ccc2c(c1)[C@]1(C(=O)N2)[C@H](c2ccc(O)cc2)N2[C@H](c3ccccc3)[C@H](c3ccccc3)OC(=O)[C@H]2[C@@H]1C(=O)N1CCCCCCC1)C(=O)OC"
RESULT: 1.11

QUERY: Param item: COc1cc(NN2C(C(O)c3cc(OC)c(OC)c(OC)c3)C=CC3C(=O)N(c4ccccc4)C(=O)C32)cc(OC)c1OC (centres undefined)
RESULT: -1.78

QUERY: Similarly, "C=C(C(=O)CC[C@@H](OC(=O)c1ccccc1-c1ccccc1C(=O)O)c1ccccc1OCCO)C(C)C" ?
RESULT: 0.0884

QUERY: What do you have for COc1cc(NN2C(C(O)C3CCCCC3)C=CC3C(=O)N(C)C(=O)C32)cc(OC)c1OC (centres undefined) ?
RESULT: -1.27

* * *

assayInfo: cell viability in Huh7 cells, primary screen, cytotoxicity control for HCV replication inhibitor project, CellTiter-Glo luminescence, basal, 48 h (AID 1143);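 further: Huh7 hepatoma cells carrying a hepatitis C replication reporter with no stimulus; test concentration not given here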
reportedConditions: Huh7 HCV replicon, higher = more signal, called active from +8 up or from −8 down
In this section, each of the compounds is paired with its reported z-score.
Number, no unit, nothing else.

Observe how each entry below is paired with its result.
C=C(CCCC)C(=O)CC[C@H](OC(C)=O)c1ccc(OCCO)cc1; -7.16
CN1C=C(C(=O)OCCS(C)(=O)=O)C(C(=O)OCCS(C)(=O)=O)=CC(c2ccc(CO)cc2)=CC1c1cccs1 (centres undefined); -1.3
CCOC(=O)C[C@H]1[C@H](OC(=O)c2cc3ccccc3oc2=O)[C@@H](NC(=O)c2ccc3ccccc3c2)c2cc(OCCCO)ccc2N1C(=O)Cc1ccc(OC)cc1; -0.361

Field: next compound
QUERY: // query z-score value for entry "COCCOC(=O)N1C(=O)[C@@]2(c3cc(C#CCNC(N)=O)ccc31)[C@H](c1ccc(O)cc1)N1[C@H](c3ccccc3)[C@H](c3ccccc3)OC(=O)[C@H]1[C@@H]2C(N)=O"
RESULT: -0.522

* * *

assayInfo: small-molecule binders of probe aNOTCH2, primary screen, biochemical, small-molecule microarray, 635/667 nm fluorescence (AID 1121);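 further: score merges feature fluorescence read at 667 nm with its signal to noise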
reportedConditions: higher = more signal
Listed below: composite z-score values for each entry.
API doc: respond with a numeric literal and nothing else, no unit.

The following compounds have reported results that may help.
COCC(=C=CC[C@@H](O)c1cccc(OCCO)c1)CCO; 0.011
CCCNC(=O)[C@@]1(Sc2ccc(C)cc2)CC(=O)N(C2CCCCC2)[C@@H]1c1ccc(CO)cc1I; -0.132
O=C(NCCN1CCOCC1)[C@@H]1c2ccccc2C(=O)N(Cc2ccccc2)[C@H]1c1ccc(CO)cc1; -0.116

QUERY: Item "COCC1=C2[C@@H](CCc3ccccc3)OB(O)C[C@@H]2[C@@H]2C(=O)N(C)C(=O)[C@@H]2C1" has what recorded composite z-score?
RESULT: -0.108

QUERY: Let us now turn to "O=C1C[C@@](C(=O)NCc2ccccc2)(c2ccc([N+](=O)[O-])cc2)[C@@H](c2ccc(CO)cc2I)N1CC12CC3CC(CC(C3)C1)C2"
RESULT: -0.14

QUERY: // same read-out, input: "CC(C)C(=C=CC[C@@H](O)c1cccc(OCCO)c1)C[C@@H](O)COCc1ccccc1"
RESULT: -0.0865

QUERY: Now try "C=C(CCCC)C(=O)CC[C@H](OC(C)=O)c1ccc(OCCO)cc1" .
RESULT: -0.181

QUERY: And "COCCOC(=O)N1C(=O)[C@@]2(c3ccccc31)[C@H](c1ccccc1OCCO)N1[C@H](c3ccccc3)[C@H](c3ccccc3)OC(=O)[C@H]1[C@@H]2C(N)=O" ?
RESULT: -0.181

* * *

// reported composite z-score per item
assayInfo: binders of probe aFGF10 on microarray, primary screen, stem cell growth factor project, biochemical, small-molecule microarray, fluorescence 635/667 (AID 1071);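 further: score merges 667 nm spot intensity and signal to noise from triplicate slides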
reportedConditions: higher = more signal

Below, 8 compounds whose answers are already recorded.
CCOC(=O)C1=CC[C@@H](c2ccccc2)N(S(=O)(=O)c2ccc(C)cc2)[C@H]1C=Cc1ccccc1; 0.694
CCN(CC)c1ccc(N2CC=CC34O[C@@H]5/C=C\CCC(C)OC(=O)C5[C@H]3C(=O)N(C(C)CO)[C@@H]4C2=O)cc1 (some centres not stated); -0.244
COCCOC(=O)N1C(=O)[C@@]2(c3ccccc31)[C@H](c1ccc(OCCO)cc1)N1[C@H](c3ccccc3)[C@H](c3ccccc3)OC(=O)[C@H]1[C@@H]2C(=O)N1CCCCCCC1; 1.52
COc1ccc(C(=O)Nc2cccc(CN3C(=O)[C@]4(O[C@H](CCn5cc([C@H](O)c6ccccc6)nn5)[C@@H]([Si](C)(C)c5ccc(OC)cc5)[C@@H]4C)c4ccccc43)c2)cc1; 0.266
CN(C)CCCCNC(=O)[C@H]1C[C@H]2C(=O)N[C@@H](CCCC[N+](C)(C)C)C(=O)N2[C@H]1c1ccc(O)cc1; -0.556
O=c1cccc(-c2ccco2)o1; 0.694
C=C[C@@H](OC)[C@H](OC(=O)Nc1ccc(SC)cc1)c1ccc(OCCO)cc1; 0.485
COC(=O)C(CC#Cc1ccc2c(c1)[C@]1(C(=O)N2)[C@H](c2ccc(OCCO)cc2)N2[C@H](c3ccccc3)[C@H](c3ccccc3)OC(=O)[C@H]2[C@@H]1C(=O)N1CCN(c2ncccn2)CC1)C(=O)OC; 1.12

Now for a further compound.
QUERY: Sample "COCCCNC(=O)[C@@]1(c2ccc([N+](=O)[O-])cc2)CC(=O)N(C(C)C)[C@@H]1c1ccc(CO)cc1" — what was its composite z-score?
RESULT: -0.0621

* * *

targetOrTestSystem: Torsin-1A (Homo sapiens)
assayInfo: torsin A binders from cell lysate, primary screen, small-molecule microarray, wild-type, 635/667 nm (AID 1149)
reportedConditions: COS7 hTOR1A-WT lysate, 635 nm fluorescence, higher = more signal
// classify(record): look up composite z-score in ranges low bin = under -0.3, mid bin = from -0.3 up to 0.5, high bin = 0.5 and over

Solved cases (4 shown):
COCCOC(=O)N1C(=O)[C@@]2(c3cc(C#CCC(C(=O)OC)C(=O)OC)ccc31)[C@H](c1ccc(O)cc1)N1[C@H](c3ccccc3)[C@H](c3ccccc3)OC(=O)[C@H]1[C@@H]2C(=O)NC[C@H](O)c1ccccc1; high bin
COCCOC(=O)N1C(=O)[C@@]2(c3cc(C#CCNC(N)=O)ccc31)[C@H](c1ccc(O)cc1)N1[C@H](c3ccccc3)[C@H](c3ccccc3)OC(=O)[C@H]1[C@@H]2C(N)=O; low bin
CC(=O)n1cc(C(O)C2C=CC3C(=O)N(c4ccccc4)C(=O)C3N2Nc2ccc(C(C)C)cc2)c2ccccc21 (stereo not given); mid bin
COc1ccc([Si](C)(C)[C@H]2[C@H](CC(=O)N3CCC[C@H]3CO)O[C@@]3(C(=O)N(Cc4ccc(N5CCC5=O)cc4)c4ccccc43)[C@@H]2C)cc1; high bin

QUERY: Into which bin does this molecule go? "C=C(COC)C(=O)CC[C@H](OC(C)=O)c1ccc(OCCO)cc1"
RESULT: high bin

QUERY: Next up: C=CCC(OC(C)=O)[C@@H]1[C@@H](N(Cc2cccc3ccccc23)C(=O)c2cccc3ccccc23)c2cc(OCCCO)ccc2N1C(=O)c1ccc2ccccc2c1 (stereo not given in full)
RESULT: mid bin
